Tested on: BDF1 mice, Lewis lung carcinoma iv, survival T/C
Assay: NCI In Vivo Anticancer Drug Screen. Data for tumor model Lewis Lung Carcinoma (intravenous) in B6D2F1 (BDF1) mice
Details: endpoint: median survival time; dose: 25.0 mg/kg/injection; schedule: Q01DX009 (ip); vehicle: saline; higher = longer survival
Toxic doses and inconclusive results are not listed.
reported_property: T/C

The cases that follow already have their T/C on record.
CCN(CC)CCOCCO: 110 % of control
CCOC(=O)C(N)C[S][Sn]([CH3])([CH3])[Cl] (centres undefined): 95 % of control
c1cn[nH]c1: 121 % of control
O=C(C1CO1)C(Cl)(Cl)Cl (centres undefined): 102 % of control
CC(C)C(N)C(=O)Nc1nncs1 (centres undefined): 106 % of control

Look up T/C for the entries below, preserving their order.
1. Cc1ccccc1N(CC1CO1)CC1CO1 (centres undefined)
2. COc1cc2cc[n+](C)c(Cc3ccccc3)c2cc1OC
3. S=c1c2[nH]cnc2ncn1CCSC1=NC=NC2=NC=NC21 (centres undefined)
4. O=C1C=CC(n2cc(F)c(=O)[nH]c2=O)O1 (centres undefined)
5. OCCNCCNc1ccnc2cc(Cl)ccc12
6. Nc1ccn([C@@H](C=O)O[C@@H](C=O)CO)c(=O)n1

output:
103 % of control
120 % of control
100 % of control
103 % of control
94 % of control
100 % of control

Parameters: items (list). Returns: T/C for each item.
1. c1ccc(CCN2CCC(CCc3c[nH]c4ccccc34)CC2)cc1
2. CC1(C)COCN1COCCOCN1COCC1(C)C
3. OCCOCC(F)(F)F

output:
1: 104 % of control; 2: 106 % of control; 3: 89 % of control
